Provide the reported change in vivo at 1 mg of each item.
Tested on: test subject
Type: in vivo, human
measurement_setup: Homo sapiens, 10 min, read-out: Change in the oxygen demand
State the answer as a number, implicitly in %.

For the compound `O=C1CN=C(c2ccccn2)c2cc(Br)ccc2N1` , what change in vivo at 1 mg is on record?
0

What would you report for `CN1C(=O)CN=C(c2ccccc2)c2cc(Cl)ccc21` ?
-44

What would you report for `O=C1CN=C(c2ccccc2)c2cc([N+](=O)[O-])ccc2N1` ?
0

What would you report for O=C1Nc2ccc(Cl)cc2C(c2ccccc2)=NC1O (centres unmarked) ?
0

What would you report for `CN1C(=O)CC(=O)N(c2ccccc2)c2cc(Cl)ccc21` ?
-51

* * *

Provide the reported Change in oxygen consumption after 2nd dos. of each item.
Tested on: test subject
assay_method_text: Bicycle ergometer test at 100 W: active ingredient, sucrose, further active ingredient, amino acid/vitamin product (Example 1c)
Type: in vivo, human
measurement_setup: 1 mg series; 2nd dosage 2.5 g of sucrose; relative to preceding dosage

For the compound CN1CCN(C2=Nc3ccccc3Sc3ccc(Cl)cc32)CC1 [clothiapine] , what Change in oxygen consumption after 2nd dos. is on record?
+78%

What would you report for Cc1ncc2n1-c1ccc(Cl)cc1C(c1ccccc1F)=NC2 [midazolam] ?
+70%

What would you report for CSc1ccc2c(c1)N(CCC1CCCCN1C)c1ccccc1S2 (centres unmarked) [thioridazine] ?
+69%

What would you report for CN(C)CCN1C(=O)c2ccccc2N(C)c2ccccc21 [dibenzepin] ?
+69%

What would you report for CN1C(=O)CN=C(c2ccccc2)c2cc(Cl)ccc21 [diazepam] ?
+74%

* * *

System: test subject
Assay type: in vivo, human
measurement_setup: Homo sapiens, 10 min, read-out: Change in the oxygen demand
endpoint_name: change in vivo at 1 mg
Kindly write the number and append the unit.

Request body: readout change in vivo at 1 mg, system test subject, query CN1C(=O)CN=C(c2ccccc2F)c2cc([N+](=O)[O-])ccc21 [flunitrazepam] . Return the value.
-39%

What would you report for CNC1=Nc2ccc(Cl)cc2C(c2ccccc2)=[N+]([O-])C1 [chlordiazepoxide] ?
0%

What would you report for Cc1ncc2n1-c1ccc(Cl)cc1C(c1ccccc1F)=NC2 [midazolam] ?
-42%

* * *

Test system: test subject
assay_method_text: Bicycle ergometer test at 100 W: active ingredient, sucrose, further active ingredient, amino acid/vitamin product (Example 1c)
Format: in vivo, human
measurement_setup: after 1 mg of active ingredient, then 2nd dosage 2.5 g of sucrose
endpoint_name: Average heart rate after 2nd dos. (per minute)
State the answer as a number, implicitly in per minute.

For the compound `CN1C(=O)CN=C(c2ccccc2)c2cc(Cl)ccc21` , what Average heart rate after 2nd dos. is on record?
111.9

What would you report for `Cc1ncc2n1-c1ccc(Cl)cc1C(c1ccccc1F)=NC2` ?
110.9

What would you report for `CN1CCN(C2=Nc3ccccc3Sc3ccc(Cl)cc32)CC1` ?
112.4

What would you report for CSc1ccc2c(c1)N(CCC1CCCCN1C)c1ccccc1S2 (centres unmarked) ?
111.0

What would you report for CN(C)CCN1C(=O)c2ccccc2N(C)c2ccccc21 [dibenzepin] ?
111.5
